# System: ACHN renal
# assay.notes: NCI tumour cell line growth inhibition, 48 h
measured.endpoint: TGI

>  <compound>
CC(C)=CCC[C@@H](C)C1=C(Nc2ccccc2F)C(O)=C(C)C(=O)C1=O

>  <assayed.target>
ACHN renal

>  <TGI>
14.3 µM

$$$$
>  <compound>
C[C@H]1[C@H](C)CC[C@]2(C(=O)OC3OC(CO)C(O)C(O)C3O)CC[C@]3(C)C(=CC[C@@H]4[C@@]5(C)C[C@@H](O)[C@@H]6OC(=O)c7cc(O)c(O)c(O)c7-c7c(cc(O)c(O)c7O)C(=O)OC[C@@]6(CO)[C@@H]5CC[C@]43C)[C@H]12 (some centres not stated)

>  <assayed.target>
ACHN renal

>  <TGI>
> 100 µM

$$$$
>  <compound>
CC(=O)Oc1ccc2c(c1)C(=O)c1nc(C)c(C)nc1C2=O

>  <assayed.target>
ACHN renal

>  <TGI>
> 100 µM

$$$$
>  <compound>
CN(N)c1nc(N)c(C#N)c(C#N)c1C#N

>  <assayed.target>
ACHN renal

>  <TGI>
> 10 µM

$$$$
>  <compound>
COC1(CC[C@H](C)COC2OC(CO)C(O)C(O)C2O)O[C@H]2C[C@H]3[C@@H]4CC=C5C[C@@H](OC6OC(CO)C(OC7OC(C)C(O)C(O)C7O)C(O)C6OC6OC(C)C(O)C(O)C6O)CC[C@]5(C)[C@H]4CC[C@]3(C)[C@H]2[C@@H]1C (some centres not stated)

>  <assayed.target>
ACHN renal

>  <TGI>
29.4 µM

$$$$

Enter recorded TGI with ACHN renal for CC(=O)[O-].N.N.N.N.[Co+3].[O-][Cl+3]([O-])([O-])[O-].[OH3+] here.
> 100 µM

Enter recorded TGI with ACHN renal for CC(=O)NN1C(=O)C(Cc2ccccc2)c2ccccc21 (configuration not stated) here.
> 100 µM

###

# System: SW-620 colon
# assay.notes: NCI tumour cell line growth inhibition, 48 h; in the data active = GI50 below about 0.43 µM; inactive = the rest
Use one of these outcomes when replying: 1 (active), -1 (inactive)

>  <compound>
O=C([O-])CC(=O)[O-].[NH-][C@@H]1CCCC[C@H]1[NH-].[Pt+4]

>  <assayed.target>
SW-620 colon

>  <assigned.category>
-1

$$$$
>  <compound>
CCCCn1c(=O)c(/C=C/C(=O)/C=C/c2cc3ccccc3n(CCCC)c2=O)cc2ccccc21

>  <assayed.target>
SW-620 colon

>  <assigned.category>
-1

$$$$
>  <compound>
N#CC1=C(N)NC(=O)NC12Nc1ccccc1N2

>  <assayed.target>
SW-620 colon

>  <assigned.category>
-1

$$$$
>  <compound>
O=P(O)(O)OCC1OC(n2cnc3c(NCc4ccccc4)ncnc32)C(O)C1O (stereo unspecified)

>  <assayed.target>
SW-620 colon

>  <assigned.category>
-1

$$$$
>  <compound>
CC1(C)CCC[C@]2(C)c3ccccc3C(=O)CC12 (stereo partly specified)

>  <assayed.target>
SW-620 colon

>  <assigned.category>
-1

$$$$

Record lookup: outcome of this test for CCOC(=O)C1=C(C)NC(c2ccco2)=C(C#N)C1c1cccc([N+](=O)[O-])c1 (stereo unspecified) ?
1

Record lookup: outcome of this test for CC(C)(C)OC(=O)Nc1ccc2c(c1)C(NC(=O)Nc1cccc(C#N)c1)CC(C)(C)O2 (stereo unspecified) ?
-1

Record lookup: outcome of this test for CCN(Cc1c(F)cccc1Cl)c1ccc(CO)c(Cl)c1 ?
1

Record lookup: outcome of this test for N#Cc1cccc(C2C3=C(COC3=O)N(CCO)c3cc4c(cc32)OCO4)c1 (stereo unspecified) ?
-1

Record lookup: outcome of this test for COc1c(N2CCN(CN3C(=O)C(=Nc4ccc(S(=O)(=O)Nc5ncccn5)cc4)c4cc(Cl)ccc43)C(C)C2)c(F)cc2c(=O)c(C(=O)O)cn(C3CC3)c12 (stereo unspecified) ?
-1

Record lookup: outcome of this test for Cc1cccc2c1[nH]c(=O)c1c3ccccc3cn21 ?
-1

Record lookup: outcome of this test for Nc1cccc2c1C(=O)c1cccc(NC(=O)c3ccccc3)c1C2=O ?
1

Record lookup: outcome of this test for CCC1=C(CC2NCCc3ccccc32)CC2c3cc(OC)c(OC)cc3CCN2C1 (stereo unspecified) ?
-1

Record lookup: outcome of this test for COc1cc(NCCCCCN=C(N)NC(N)=NC(C)C)c2ncccc2c1 ?
-1

Record lookup: outcome of this test for CO/N=C(\COc1ccc2oc(-c3ccccc3)cc(=O)c2c1)c1ccc(F)cc1 ?
-1

Record lookup: outcome of this test for COC(=O)[C@H](Cc1cn(C)cn1)NC(=O)[C@H](Cc1ccccc1)NC(=O)Nc1cc(C(F)(F)F)cc(C(F)(F)F)c1 ?
-1

###

TGI for assorted compounds
# Test system: SK-OV-3 ovarian
# assay.notes: NCI tumour cell line growth inhibition, 48 h

>  <compound>
CC[C@H](NC(=O)OC(C)(C)C)C(=O)NCP(=O)(OCc1ccc([N+](=O)[O-])cc1)OCc1ccc([N+](=O)[O-])cc1

>  <TGI>
86 µM

$$$$
>  <compound>
Nc1c(N2CCOCC2)c(=O)nc2[nH]/c(=C\c3ccccc3O)c(=O)n12

>  <TGI>
> 100 µM

$$$$
>  <compound>
C/C=C(\C)C(=O)OC1/C=C(\C)CC/C=C(\C)CC2OC(=O)C(C)(OC(C)=O)C12 (stereo not given)

>  <TGI>
> 100 µM

$$$$
>  <compound>
CC/C(=C/c1ccc(OC)cc1OC)[N+](=O)[O-]

>  <TGI>
30.4 µM

$$$$

Kindly consider the entry below.
// fetch TGI given entry Cc1nc2c(=O)n(-c3ccccc3)c(=O)n(-c3ccccc3)c2o1
> 100 µM

###

TGI for assorted compounds
# Test system: SN12C renal
# assay.notes: NCI tumour cell line growth inhibition, 48 h

Take a look at these entries with their results.
>  <compound>
CCOC(=O)C1=C(C)NC(c2ccco2)=C(C#N)C1c1cccc([N+](=O)[O-])c1 (stereo unspecified)

>  <assayed.target>
SN12C renal

>  <readout.value>
19.7 µM

$$$$
>  <compound>
N#Cc1cccc(N2C(=O)C3C4C=CC(C3C2=O)C2C(=O)N(c3cccc(C#N)c3)C(=O)C42)c1 (stereo unspecified)

>  <assayed.target>
SN12C renal

>  <readout.value>
> 39.8 µM

$$$$
>  <compound>
Cc1cccc2c1[nH]c(=O)c1c3ccccc3cn21

>  <assayed.target>
SN12C renal

>  <readout.value>
18.8 µM

$$$$

// fetch TGI given entry CCn1c2ccccc2c2cc(C(=O)c3ccc(C)c4ccccc34)ccc21
> 100 µM

// fetch TGI given entry CC1=C(C)SC(=C2Sc3c(n(C)c(=O)n(C)c3=O)S2)S1
> 100 µM

// fetch TGI given entry COC(=O)N[C@H]1CCc2c(Cl)c(OC)c(OC)c(OC)c2-c2ccc(SC)c(=O)cc21
> 43.9 µM

// fetch TGI given entry O=C(O)c1ccc(SSc2ccc(C(=O)O)cn2)nc1
> 100 µM

// fetch TGI given entry CCCCN(CCCC)CC(C(C)=O)C(c1ccccc1)c1c(O)c2ccccc2oc1=O (stereo unspecified)
> 100 µM

// fetch TGI given entry CC1(C)C=C(/C=C2/N(S(=O)(=O)C(F)(F)F)C(/C=C3/N(S(=O)(=O)C(F)(F)F)C(C)(C#N)CC3(C)C)=CC2(C)C)N=C1/C=C1/CC(C)(C)C(=O)N1 (stereo unspecified)
> 100 µM

// fetch TGI given entry Nc1c2ccccc2nc2c(C(=O)Nc3ccc(S(N)(=O)=O)cc3)cccc12
> 100 µM

// fetch TGI given entry CC/C=N\N1C(N)=C(C#N)C(C#N)(C#N)C1CC (stereo unspecified)
> 100 µM

// fetch TGI given entry COc1ccc2c(c1OC)C(=O)N1C2=Cc2c(cc3c(c2OC)OCO3)CC1N(C)C (stereo unspecified)
> 100 µM

// fetch TGI given entry COc1cc2cnc3c4cc(OCc5ccccc5)ccc4ccc3c2cc1OC
> 100 µM

// fetch TGI given entry CCOC(=O)CN1C(=O)c2cc([N+](=O)[O-])cc3cc([N+](=O)[O-])cc(c23)C1=O
> 100 µM

// fetch TGI given entry Cc1cc(-c2cc(C(C)(C)C)c(O)c(C(C)(C)C)c2)c(C)cc1-c1cc(C(C)(C)C)c(O)c(C(C)(C)C)c1
> 100 µM

// fetch TGI given entry CSc1ncc2c(n1)-c1ccccc1OC2NC1CC1 (stereo unspecified)
> 100 µM

// fetch TGI given entry O=C1CC[C@@]23CC(=O)O[C@@H]2CCCC3C1 (stereo partly specified)
> 100 µM

// fetch TGI given entry CC(SCc1ccccc1)C(=O)O (stereo unspecified)
> 100 µM

// fetch TGI given entry Cc1ccc(C)c(COCCOCn2cc(N3CCOCC3)c(=O)[nH]c2=O)c1
> 100 µM

// fetch TGI given entry CN(C)/N=N/c1nc2c(c(=O)n(C)c(=O)n2C)n1CC1CO1 (stereo unspecified)
46.7 µM

// fetch TGI given entry NC(Cc1ccccc1)c1nccs1 (stereo unspecified)
> 100 µM
